# credit: PubChem BioAssay (NCI)

Measured growth accompanies every entry in the list below.
Test system: T-47D breast
Protocol details: NCI-60 one-dose screen, 48 h (100 = growth as untreated, 0 = no growth, -100 = all killed)
Experimental context: 10 µM unless noted
The panel holds about 83,000 compounds, 20% with a hit somewhere; the sample as a whole holds those more often. Calls of active or inactive are those of the source. Rule for the calls: active = growth percent below 10; inactive = the rest.
Assay readout: growth

> print(dat)
                                   compound  tested.target  assay.readout            result
1  CCN(C(=O)N1CCN(c2cc3c(cc2F)c(=O)c(C(=O)O)cn3C2CC2)CC1)c1nc(-c2ccccc2)cs1   T-47D breast         growth  55.4% (inactive)
2  Cc1nc2sc(C(=O)Nc3cccc4ncccc34)c(N)c2cc1C(C)O (stereo not drawn)   T-47D breast         growth  76.2% (inactive)
3         COc1ccccc1/C=C1\COc2ccc(O)cc2C1=O   T-47D breast         growth  82.8% (inactive)

====

Tested on: A498 renal
Protocol details: NCI-60 one-dose screen, 48 h (100 = growth as untreated, 0 = no growth, -100 = all killed)
Experimental context: 10 µM unless noted
About 83,000 compounds went through this panel and 20% of them were active in at least one assay; those are over-represented in the sample as a whole.
Each entry belongs to exactly one class, chosen by where its growth falls: bin A (below 60%), bin B (60% to below 90%), bin C (90% or more)

> print(dat)
                                    compound  tested.target  answer.label
 1  NS(=O)(=O)c1ccc(C(=O)N=Nc2c(O)[nH]c3c(F)cccc23)cc1     A498 renal         bin C
 2  O=C1OCC2=C1C(c1cccc(C(F)(F)F)c1)c1cc3c(cc1N2CCO)OCCO3 (configuration not stated)     A498 renal         bin A
 3  COc1cccc(NC(=O)c2sc3nc(C)c(C(O)c4ccccc4)cc3c2N)c1 (configuration not stated)     A498 renal         bin A
 4  COc1ccc2c(c1)CC[C@@H]1[C@@H]2CC[C@]2(C)C3C(=CCC4C(=O)N(c5ccccc5)C(=O)C43)C[C@@H]12 (some centres not stated)     A498 renal         bin C
 5              O=C1C=CC(=O)N1c1ccc2ccccc2c1     A498 renal         bin C
 6  COc1ccc(C(c2cc(OC)c(OC)c(OC)c2)n2ccnc2)cc1O (configuration not stated)     A498 renal         bin A
 7  COc1cc(C=O)ccc1Oc1ccc([N+](=O)[O-])cc1[N+](=O)[O-]     A498 renal         bin C
 8  CCOC(=O)n1cc(-c2nonc2-c2cn(C)c3ccc(OC)cc23)c2cc(F)ccc21     A498 renal         bin B
 9  COc1cc(NC2CCCCC2O)c2nc(-c3ccc(Cl)cc3)ccc2c1 (configuration not stated)     A498 renal         bin C
10  CC1(Cc2ccccc2)CC2=C(C(=O)O1)C(c1ccccc1)NC(=O)N2 (configuration not stated)     A498 renal         bin C
11  COc1ccc(-c2c[nH]c(C(=O)O)c2-c2cc(OC)c(OC)c(OC)c2)cc1     A498 renal         bin A
12  O=C1/C(=C/c2ccc(F)c(F)c2)CN(C(=O)C(Cl)Cl)C/C1=C\c1ccc(F)c(F)c1     A498 renal         bin A
13  C[C@]12CCc3c(ccc4cc(O)ccc34)[C@@H]1C[C@H](O)[C@@H]2O     A498 renal         bin B
14  CCN(CC)CC#CCOC(=O)[C@]1(C)CCC[C@]2(C)c3ccc(C(C)C)cc3CC[C@@H]12     A498 renal         bin B
15                Clc1ccc(/C=N\N2CCCCCC2)cc1     A498 renal         bin B
16  Cc1ccc(Cl)cc1N1CCN(C(=O)[C@@H]2C[C@@H]2c2ccc(F)cc2)CC1     A498 renal         bin B
17  CCN(CC)CCCN1C(=O)c2c(c(C)c3c(oc4cc(OC)ccc43)c2C)C1=O     A498 renal         bin C
18  Nn1c(-c2ccc(Cl)cc2)nc2c(-c3ccc(Cl)cc3)nc3ccc(Cl)cc3c2c1=O     A498 renal         bin A
19  O=C(/C=C/c1ccc(F)cc1)Nc1ncc(Cc2ccc(F)cc2)s1     A498 renal         bin A
20  Cn1cc(-c2csc(-c3c[nH]c4ccc(F)cc34)n2)c2cnccc21     A498 renal         bin B

====

System: NCI-H226 lung
Protocol details: NCI-60 one-dose screen, 48 h (100 = growth as untreated, 0 = no growth, -100 = all killed)
Experimental context: 10 µM unless noted
The panel holds about 83,000 compounds, 20% with a hit somewhere; the sample as a whole holds those more often.
Measured growth accompanies every entry in the list below.
Assay readout: growth (%)

> print(dat)
                                    compound  assay.readout  numeric.readout
 1  COc1cc(Cl)cc(-c2nn(C(=O)NS(=O)(=O)c3ccc(Cl)cc3)cc2-c2ccncc2)c1         growth             70.7
 2  CCCCC1COc2cccc3c2N1C=C/C3=C\C(=O)N(C)c1cccc(Cl)c1 (stereo not given)         growth              100
 3       O=C(CCl)N(O)c1ccc(/C=C/c2ccccc2)cc1         growth             56.9
 4             Nc1ccc(-c2ccc(N)c(Br)c2)cc1Br         growth             56.9
 5  CC12CCC(C(=O)CC1=O)C2(C)C (stereo not given)         growth             95.8
 6  CCOC(=O)c1nc2c3ccccc3cnn2c1C(=O)c1ccc(OC)cc1         growth             81.9
 7            CCNC(=O)Nc1ncccc1OCc1ccc(F)cc1         growth              106
 8  O=C(CN1C(=O)S/C(=C\C(Cl)=C\c2ccccc2)C1=O)NCCCn1ccnc1         growth             41.9
 9  Clc1ccc2c(c1)N(c1ncnc3ccc(-c4cnc5[nH]ccc5c4)cc13)CC2         growth             40.9
10  O=C1N=c2ccccc2=C1c1sc(=S)n(C2CC(=O)N(c3ccc(Cl)cc3)C2=O)c1O (stereo not given)         growth               92

====

Test system: CCRF-CEM leukemia
Protocol details: NCI-60 one-dose screen, 48 h (100 = growth as untreated, 0 = no growth, -100 = all killed)
Experimental context: 10 µM unless noted
Compounds without any hit were thinned out: in the full panel of roughly 83,000, 20% have a hit.
Decision: growth >= 60% yields class 1, all other cases yield class 0.

Molecule smiles	Tested target	Answer label
CCc1c2c(nc3ccc(OCc4ccc(B5OC(C)(C)C(C)(C)O5)cc4)cc13)-c1cc3c(c(=O)n1C2)COC(=O)[C@]3(O)CC	CCRF-CEM leukemia	class 0
CCCCn1c(C(=O)c2c[nH]c3ccccc23)n[nH]c1=S	CCRF-CEM leukemia	class 1
COCCn1cc(-c2csc(-c3cn(C)c4ccc(F)cc34)n2)c2cccnc21	CCRF-CEM leukemia	class 0
O=c1oc2c(Br)cc(Br)cc2cc1-c1cc(-c2ccc(-c3cc(-c4cc5cc(Br)cc(Br)c5oc4=O)nc(-c4cc5cc(Br)cc(Br)c5oc4=O)c3)cc2)cc(-c2cc3cc(Br)cc(Br)c3oc2=O)n1	CCRF-CEM leukemia	class 1
Cc1nc2cccc(NCCCCC(=O)NO)c2c(=O)n1-c1ccccc1	CCRF-CEM leukemia	class 0

====

System: HCT-15 colon
Protocol details: NCI-60 one-dose screen, 48 h (100 = growth as untreated, 0 = no growth, -100 = all killed)
Experimental context: 10 µM unless noted
Method: Growth inhibition of the HCT-15 human tumor cell line is measured as a screen for anti-cancer activity. Cells are grown in 96 well plates and exposed to the test compound for 48 hours. Compounds are tested at a single concentration, which is 10^-5 M for most compounds. The reported endpoint is percent growth (GI% or GIPRCNT), where numbers from 0 - 100% represent growth inhibition, and numbers from -100% - 0 represent cell death. For example, a value of 40 represents 60% growth inhibition. […]
The panel holds about 83,000 compounds, 20% with a hit somewhere; the sample as a whole holds those more often. Activity calls are given as the source filed them. The calls were made as follows: active = growth percent below 10; inactive = the rest.
Assay readout: growth

> print(dat)
                                    molecule  tested.target            result
 1  CCOc1nc(-c2ccccc2)cc2c(O)c(C(=O)N/N=C/c3ccc(N(C)C)cc3)[nH]c(=O)c12   HCT-15 colon   117% (inactive)
 2  O=C(Nc1ccc(F)cc1)c1cc2cc(Nc3nc(-c4ccccc4)nc4ccccc34)ccc2oc1=O   HCT-15 colon   112% (inactive)
 3  Cc1ccc(-c2nc(SCC(=O)c3ccc(C#N)cc3)[nH]c(=O)c2C#N)cc1   HCT-15 colon   105% (inactive)
 4  Cc1ccc(-c2nc3nc(-c4ccc(F)cc4)nc(N4CCCNCC4)c3o2)cc1   HCT-15 colon   -84.5% (active)
 5  CCOC(=O)C1=C(C)N=C2SC=C(c3ccc(F)cc3)N2[C@H]1c1cn(-c2ccccc2)nc1-c1ccc(Cl)cc1   HCT-15 colon  92.9% (inactive)
 6  CN(C)CCN1C(=O)c2c(c3c4ccccc4n4c3c3c2c2ccccc2n3C2CC(O)C(O)C4(C)O2)C1=O (configuration not stated)   HCT-15 colon  15.5% (inactive)
 7  COC(=O)c1nc(-c2ccc(C)cc2)oc1Sc1ccc(C)cc1   HCT-15 colon  86.8% (inactive)
 8  CNC(=O)c1cc(Oc2ccc3nc(NC(=O)Nc4ccc(C(F)(F)F)cc4)sc3c2)ccn1   HCT-15 colon  54.2% (inactive)
 9  CN(C)CCCn1c2c(c3ccc(N4CCNCC4)cc3c1=O)C(=O)c1ccccc1-2   HCT-15 colon   -36.5% (active)
10  Clc1ccc(Nc2nc(Nc3ccc(Cl)cc3)nc(Nc3ccc(-c4cc(-c5cccc(Cl)c5)on4)cc3)n2)cc1   HCT-15 colon  89.8% (inactive)
11  CCCCCCCCCCCCCCCCCCn1cc(COc2ccc(C=O)cc2)nn1   HCT-15 colon  95.9% (inactive)
12  O=C1/C(=C/c2ccc(-c3ccccc3C(F)(F)F)o2)SC(=S)N1CCc1ccc(O)cc1   HCT-15 colon  29.6% (inactive)
